src = patent US9828360B2

This section lists pIC50 readings for TrkA (Homo sapiens).
pIC50: −log10 of the molar value.

INSERT INTO measurements (molecule, target_system, result_type, result) VALUES
  ('COCCOc1ccc(NC(=O)N[C@@H]2CN(CCOC)C[C@H]2c2ccc(F)c(F)c2)c(-c2ccccc2)n1', 'TrkA (Homo sapiens)', 'pIC50', '> 7.00'),
  ('COCCN1C[C@@H](NC(=O)Nc2cccnc2-c2ccccc2)[C@H](c2ccccc2)C1 (relative stereo)', 'TrkA (Homo sapiens)', 'pIC50', '> 7.00'),
  ('COCCN1C[C@@H](NC(=O)Nc2ccn(C)c(=O)c2-c2ccccc2)[C@H](c2ccc(F)c(F)c2)C1', 'TrkA (Homo sapiens)', 'pIC50', '6.00 to 7.00'),
  ('COCCN1C[C@@H](NC(=O)Nc2c(-c3ccccc3)nc(C)n2C)[C@H](c2ccc(F)c(F)c2)C1', 'TrkA (Homo sapiens)', 'pIC50', '> 7.00'),
  ('COCCN1C[C@@H](NC(=O)Nc2cncnc2-c2ccccc2)[C@H](c2ccc(F)c(F)c2)C1', 'TrkA (Homo sapiens)', 'pIC50', '> 7.00'),
  ('COCCN1C[C@@H](NC(=O)Nc2sc(-c3ccccc3)nc2C)[C@H](c2ccccc2)C1', 'TrkA (Homo sapiens)', 'pIC50', '> 7.00');

Sample COCCN1C[C@@H](NC(=O)Nc2cc(S(C)(=O)=O)cnc2-c2ccccc2)[C@H](c2ccccc2)C1 (relative stereo) , system: TrkA (Homo sapiens). Its pIC50 is 6.00 to 7.00
